System: RXF 393
Test: NCI tumour cell line growth inhibition, 48 h
Activity calls are given as the source filed them. No stated cut-off is given here; in the data, active = GI50 up to about 1.1 µM and inactive = higher.
Listing: GI50 of selected compounds

{"Compound": "CCC1=C(C(C)=O)[C@@H]2CCCCC[C@@H](C(=O)OC)C2C1=O (some centres not stated)", "GI50": "> 100 µM (inactive)"}
{"Compound": "CC1=CC(=O)c2ccccc2C1=O", "GI50": "13.4 µM (inactive)"}
{"Compound": "Cc1ccc([S+]([O-])C[C@@]2(C(F)F)NC(=O)NC2=O)cc1 (some centres not stated)", "GI50": "> 100 µM (inactive)"}
{"Compound": "CN1CC=C(c2c(N)nc(N)[nH]c2=O)CC1", "GI50": "> 100 µM (inactive)"}
{"Compound": "Cc1nc2ccccc2nc1-c1ccc(/N=[N+](\\[O-])c2ccc(-c3nc4ccccc4nc3C)cc2)cc1", "GI50": "28.8 µM (inactive)"}
{"Compound": "COc1cccc2c1C(=O)c1c(O)c3c(c(O)c1C2=O)C[C@@](O)(C(C)=O)CC3S(=O)(=O)O (some centres not stated)", "GI50": "> 100 µM (inactive)"}
{"Compound": "Cc1ccc(Oc2ccc(C)cc2N)cc1", "GI50": "31.5 µM (inactive)"}

* * *

Test system: UACC-62
Test: NCI tumour cell line growth inhibition, 48 h
Activity calls are given as the source filed them. Rule as the data show it: active = GI50 up to about 1.1 µM and inactive = higher.
Endpoint Name: GI50

{"Compound": "Cc1ccc2[nH]c3c(C)c4cc[n+](C)cc4c(C)c3c2c1", "Result": "2.68 µM (inactive)"}
{"Compound": "COc1ccc(C(=O)Oc2c(C#N)sc3c2c(=O)n(-c2ccccc2)c(=S)n3-c2ccccc2)cc1", "Result": "5.66 µM (inactive)"}
{"Compound": "COc1ccc(NC2=CC(=O)C(=O)c3ccccc32)nn1", "Result": "1.34 µM (inactive)"}
{"Compound": "COc1ccc2c(c1)[n+]([O-])c(/C(C)=N/NC(N)=S)c(C)[n+]2[O-]", "Result": "44.8 µM (inactive)"}
{"Compound": "CCCCCCSC[C@H](OC(C)=O)[C@@H](OC(C)=O)[C@@H](OC(C)=O)[C@@H](COC(C)=O)OC(C)=O", "Result": "> 100 µM (inactive)"}
{"Compound": "N#CC(Nc1cccc(C(F)(F)F)c1)c1ccccc1C(F)(F)F (stereo not given)", "Result": "16.2 µM (inactive)"}
{"Compound": "Cc1ccc(C(=O)N(C(C)C)C(C)C)cc1/N=N/N(C)C", "Result": "> 80.5 µM (inactive)"}
{"Compound": "COc1ccc(C2C3CCCC(C3=O)C(c3ccc(OC)cc3)N2N=O)cc1 (stereo not given)", "Result": "28.6 µM (inactive)"}
{"Compound": "COc1ccc(/C(C=O)=C(\\Cl)c2ccc(OC)c(OC)c2)cc1", "Result": "> 100 µM (inactive)"}
{"Compound": "COc1ccc2nc(-c3ccc(OCc4ccccc4)cc3)ccc2c1", "Result": "> 100 µM (inactive)"}

* * *

Tested on: SK-MEL-5
Assay: NCI tumour cell line growth inhibition, 48 h
Calls of active or inactive are those of the source. Cut-off read from the data, not from the text of the source: active = GI50 up to about 1.1 µM and inactive = higher.

{"Compound": "O=C(CC(c1ccccc1)c1c(O)c2ccccc2oc1=O)c1ccccc1 (stereo not given)", "GI50": "> 100 µM (inactive)"}
{"Compound": "O=C(O)CNS(=O)(=O)c1ccc(NCc2ccccc2)cc1", "GI50": "> 100 µM (inactive)"}
{"Compound": "Brc1ccc(C2(N3CCCCC3)CCCCC2)s1", "GI50": "0.561 µM (active)"}
{"Compound": "COC(=O)C(=O)C(C(C)=O)C(=O)NCc1ccccc1 (stereo not given)", "GI50": "> 100 µM (inactive)"}
{"Compound": "O=C(O)CNC(=O)c1ccc2cc(C(=O)N3CC(CCl)c4ccc([N+](=O)[O-])cc43)[nH]c2c1 (stereo not given)", "GI50": "> 100 µM (inactive)"}
{"Compound": "C=O.NNCCc1n[nH]c(=O)n1N", "GI50": "> 100 µM (inactive)"}
{"Compound": "Cc1cc(Br)c(N2C3=C(CC4=C2CCCC4=O)C(=O)CCC3)c(Br)c1", "GI50": "38.7 µM (inactive)"}
{"Compound": "CC1C(c2ccc(N(C)C)cc2)c2cc3c(cc2OC1N1CCCC1)OCO3 (stereo not given)", "GI50": "30.6 µM (inactive)"}
{"Compound": "COC(=O)[C@@H](Nc1ccccc1)[C@@]1(C(=O)OC)SC12c1ccccc1-c1ccccc12", "GI50": "41.4 µM (inactive)"}
{"Compound": "O=S1(=O)NN=C(NCc2ccc(F)cc2)c2ccccc21", "GI50": "> 68.2 µM (inactive)"}
{"Compound": "CCCCCC(=O)OCC1(CO)C/C(=C\\CC(C(C)C)C(C)C)C(=O)O1 (stereo not given)", "GI50": "38.4 µM (inactive)"}
{"Compound": "CCC1(O)C[C@H]2CN(CCCc3c([nH]c4ccccc34)[C@@](C(=O)OC)(c3cc4c(cc3OC)N(C)C3[C@](O)(C(=O)OC)[C@H](OC(C)=O)[C@]5(CC)C=CCN6CC[C@]43[C@H]65)C2)C1 (stereo not given in full)", "GI50": "0.333 µM (active)"}
{"Compound": "C[C@]12CC[C@H]3[C@@H](CCC4=C[C@@H](OC5OCC(OC6OC(CO)C(O)C(O)C6O)C(O)C5O)CC[C@@]43C=O)[C@@]1(O)CCC2C1=CC(=O)OC1 (stereo not given in full)", "GI50": "0.385 µM (active)"}
{"Compound": "CC(=C(C(N)=O)C(N)=O)C1C=C(c2cccs2)CC(c2ccc(Cl)cc2)=C1O (stereo not given)", "GI50": "20.3 µM (inactive)"}
{"Compound": "CC(=O)/C(=N\\N=C(N)N)c1ccccc1", "GI50": "> 100 µM (inactive)"}
{"Compound": "NC(Cc1ccc(O)c(O)c1)P(=O)(O)O (stereo not given)", "GI50": "> 100 µM (inactive)"}
{"Compound": "COC(=O)C1(Cc2ccccc2)Cc2ccc3c(c2C1=O)CCC3 (stereo not given)", "GI50": "18.5 µM (inactive)"}
{"Compound": "CCCCOC(=O)C(=O)C(CC(C(=O)Cc1ccccc1)c1ccccc1)C(=O)C=C(C)C (stereo not given)", "GI50": "> 100 µM (inactive)"}
{"Compound": "CCCCCCCC/C=C/CCCCCCCC(=O)N(O)C1CC(n2cc(C)c(=O)[nH]c2=O)OC1CO (stereo not given)", "GI50": "7.18 µM (inactive)"}
{"Compound": "CC(C)(C)OC(=O)N1C(C2=COc3ccccc3O2)=COc2cccnc21", "GI50": "1.75 µM (inactive)"}
